Entry source: ChEMBL document CHEMBL3091356

# TARGET_ENTITY: Carbonic anhydrase 2 (Homo sapiens)
# TEST_SUMMARY: Inhibition of human recombinant carbonic anhydrase 2-mediated CO2 hydration preincubated for 15 mins by stopped-flow assay
Could you please report measured Ki for the items listed next?
The figure you give is taken to be in µM; do not add the unit.

Ki on Carbonic anhydrase 2 (Homo sapiens) for `Oc1ccccc1/C=N/CC/N=C/c1ccccc1O` is 1.72

Ki on Carbonic anhydrase 2 (Homo sapiens) for `Oc1ccccc1CNCCCNCc1ccccc1O` is 0.39

Ki on Carbonic anhydrase 2 (Homo sapiens) for `Oc1ccccc1/C=N/CCCCCC/N=C/c1ccccc1O` is 3.6

----------
Data export: pKi values recorded with Carbonic anhydrase 9 (Homo sapiens, UniProt Q16790).
# reply with the number alone; pKi is -log10 of concentration in mol/L

pKi reported for this compound `Oc1ccccc1CNc1ccccc1NCc1ccccc1O` : 6.66

pKi reported for this compound `Oc1ccccc1CNCCCCCNCc1ccccc1O` : 5.38

pKi reported for this compound `Oc1ccccc1CNCCCCCCNCc1ccccc1O` : 5.60

pKi reported for this compound `Oc1ccccc1CNCCCNCc1ccccc1O` : 5.47

pKi reported for this compound `Oc1ccccc1/C=N/CCCCC/N=C/c1ccccc1O` : 5.35

pKi reported for this compound `Oc1ccccc1/C=N/CCCCCC/N=C/c1ccccc1O` : 5.36
